assayed-system: T1, recombinant mouse αvβ6 integrin extracellular domains (mouse, UniProt P43406 1-988; Q9Z0T9 1-706, Biotinylated on the Avitag (tag not in the letters); interchain disulfide between the coiled-coils (not in the letters).)
T1 construct: Soluble heterodimer co-expressed in Expi293 cells; also called mαvβ6
T1 sequence (P43406 31-988 limits assumed, form in doubt, chain 1 of 2): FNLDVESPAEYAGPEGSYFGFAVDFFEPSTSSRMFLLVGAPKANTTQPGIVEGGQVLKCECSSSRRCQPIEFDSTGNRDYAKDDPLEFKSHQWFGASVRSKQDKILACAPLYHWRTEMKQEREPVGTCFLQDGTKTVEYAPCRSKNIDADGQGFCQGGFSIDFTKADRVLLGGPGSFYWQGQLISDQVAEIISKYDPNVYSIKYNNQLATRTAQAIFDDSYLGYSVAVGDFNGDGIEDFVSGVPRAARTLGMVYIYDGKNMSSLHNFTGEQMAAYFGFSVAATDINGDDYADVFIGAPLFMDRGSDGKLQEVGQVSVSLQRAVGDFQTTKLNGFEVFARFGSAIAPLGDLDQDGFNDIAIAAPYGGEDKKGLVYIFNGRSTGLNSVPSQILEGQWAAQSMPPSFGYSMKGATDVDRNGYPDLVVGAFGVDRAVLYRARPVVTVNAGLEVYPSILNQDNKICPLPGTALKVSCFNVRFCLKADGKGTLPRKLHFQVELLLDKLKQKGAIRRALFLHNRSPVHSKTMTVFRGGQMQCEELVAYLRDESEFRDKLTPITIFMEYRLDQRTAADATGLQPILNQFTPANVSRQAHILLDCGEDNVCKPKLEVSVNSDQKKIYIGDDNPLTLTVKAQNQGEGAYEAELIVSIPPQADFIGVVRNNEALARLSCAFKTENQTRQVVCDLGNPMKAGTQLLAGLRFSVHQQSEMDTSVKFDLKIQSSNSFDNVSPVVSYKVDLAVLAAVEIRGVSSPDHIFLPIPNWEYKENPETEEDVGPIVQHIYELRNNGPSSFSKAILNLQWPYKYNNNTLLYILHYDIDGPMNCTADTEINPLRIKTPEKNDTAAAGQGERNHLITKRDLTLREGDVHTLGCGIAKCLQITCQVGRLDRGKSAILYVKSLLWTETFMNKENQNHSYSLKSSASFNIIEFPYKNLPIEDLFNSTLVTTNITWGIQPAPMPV
T1 sequence (Q9Z0T9 22-706 limits assumed, form in doubt, chain 2 of 2): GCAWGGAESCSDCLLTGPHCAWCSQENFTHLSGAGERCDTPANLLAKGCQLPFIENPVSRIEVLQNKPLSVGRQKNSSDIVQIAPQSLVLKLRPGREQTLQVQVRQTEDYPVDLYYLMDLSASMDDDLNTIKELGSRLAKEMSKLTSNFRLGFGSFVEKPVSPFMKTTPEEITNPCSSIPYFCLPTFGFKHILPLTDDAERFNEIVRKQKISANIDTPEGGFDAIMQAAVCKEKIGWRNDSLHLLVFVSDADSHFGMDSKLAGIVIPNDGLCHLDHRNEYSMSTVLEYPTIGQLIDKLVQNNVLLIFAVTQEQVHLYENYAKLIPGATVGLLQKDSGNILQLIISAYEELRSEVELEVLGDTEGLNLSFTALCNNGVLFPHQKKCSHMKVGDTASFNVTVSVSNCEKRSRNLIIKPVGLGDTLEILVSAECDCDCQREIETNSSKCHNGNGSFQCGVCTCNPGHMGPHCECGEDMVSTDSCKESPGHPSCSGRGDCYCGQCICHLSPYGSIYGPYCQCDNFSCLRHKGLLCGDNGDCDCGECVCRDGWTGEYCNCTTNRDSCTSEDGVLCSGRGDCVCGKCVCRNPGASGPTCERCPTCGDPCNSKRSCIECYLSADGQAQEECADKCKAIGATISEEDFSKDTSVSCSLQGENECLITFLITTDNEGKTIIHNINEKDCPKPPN
measurement-protocol: AlphaLISA blocking of mouse LAP-6His binding
API: label(entry) gives 1 (yes) if the entry's IC50 is strictly smaller than 0.02 µM; on equality or larger values it gives 0 (no).

Example entries and their recorded answers appear below.
Ab-29 (antibody, V domains shown) VH: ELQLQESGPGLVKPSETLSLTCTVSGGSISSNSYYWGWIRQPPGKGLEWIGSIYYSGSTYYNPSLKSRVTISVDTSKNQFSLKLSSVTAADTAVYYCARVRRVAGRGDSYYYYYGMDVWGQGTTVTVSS VL: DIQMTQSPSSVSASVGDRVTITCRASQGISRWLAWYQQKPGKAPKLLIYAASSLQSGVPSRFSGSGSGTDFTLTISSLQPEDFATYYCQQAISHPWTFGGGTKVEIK | 0 (no)
Ab-31 (antibody, V domains shown) VH: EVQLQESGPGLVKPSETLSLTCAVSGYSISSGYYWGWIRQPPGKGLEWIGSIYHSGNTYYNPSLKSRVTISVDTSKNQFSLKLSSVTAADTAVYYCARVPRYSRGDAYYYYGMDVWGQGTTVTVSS VL: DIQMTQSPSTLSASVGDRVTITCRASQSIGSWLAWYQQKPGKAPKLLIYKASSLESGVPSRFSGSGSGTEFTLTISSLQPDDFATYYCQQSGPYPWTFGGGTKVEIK | 1 (yes)
Ab-30 (antibody, V domains shown) VH: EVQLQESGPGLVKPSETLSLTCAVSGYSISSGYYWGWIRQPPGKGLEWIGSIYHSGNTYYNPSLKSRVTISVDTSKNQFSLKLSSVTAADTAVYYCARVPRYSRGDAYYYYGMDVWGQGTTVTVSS VL: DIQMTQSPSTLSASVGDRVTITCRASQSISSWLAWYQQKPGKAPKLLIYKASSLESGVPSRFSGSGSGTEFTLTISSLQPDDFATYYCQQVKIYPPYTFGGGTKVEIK | 0 (no)

Enquiry: Record Ab-33 (antibody, V domains shown) VH: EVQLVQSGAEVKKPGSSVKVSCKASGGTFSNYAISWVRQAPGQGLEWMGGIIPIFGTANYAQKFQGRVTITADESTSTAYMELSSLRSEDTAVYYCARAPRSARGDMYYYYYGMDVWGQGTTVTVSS VL: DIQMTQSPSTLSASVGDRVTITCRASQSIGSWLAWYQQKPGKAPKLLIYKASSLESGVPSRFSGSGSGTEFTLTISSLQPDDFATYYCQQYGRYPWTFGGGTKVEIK : is its IC50 strictly below 0.02 µM?
Return: 1 (yes)

Enquiry: Subsequent entry: Ab-32 (antibody, V domains shown) VH: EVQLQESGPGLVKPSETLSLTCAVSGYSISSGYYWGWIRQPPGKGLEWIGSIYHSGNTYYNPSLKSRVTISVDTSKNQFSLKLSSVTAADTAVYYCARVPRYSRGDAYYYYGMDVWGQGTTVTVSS VL: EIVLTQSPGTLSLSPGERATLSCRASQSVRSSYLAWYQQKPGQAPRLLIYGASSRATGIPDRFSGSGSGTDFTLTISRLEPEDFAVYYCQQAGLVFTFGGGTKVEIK
Return: 1 (yes)
